assay: MTT cytotoxicity assay; assay type: cell-based; conditions: HEK293, human cells
Bridge positions count the residues as written; N and C are the ends. Square brackets hold non-standard residues; d marks the D form. Peptide text beside a SMILES is read from it. * marks the point of attachment. X1 = CC[C@H](C)CCCCC(=O)*; Dab = NCC[C@H](N)C(=O)O
parameter: IC50 at 48 h

stdin: Tell me its IC50 at 48 h given CC[C@H](C)CCCCC(=O)N[C@@H](CCN)C(=O)N[C@H](C(=O)N[C@@H](CCN)C(=O)N[C@H]1CCNC(=O)[C@H]([C@@H](C)O)NC(=O)[C@H](CCN)NC(=O)[C@H](CCN)NC(=O)[C@H](CC(C)C)NC(=O)[C@@H](CC(C)C)NC(=O)[C@H](CCN)NC1=O)[C@@H](C)O [Colistin, colistin] (X1-[Dab]T[Dab][Dab][Dab][dL]L[Dab][Dab]T; lactam 4-C) as the entry.
stdout: > 512 µg/mL
